# test-method-notes: small-molecule microarray binders of probe aEGFR, primary screen, biochemical, biotinylated probe, 635/667 nm fluorescence (AID 1097);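 further: probe is a biotinylated anti-EGFR antibody binding compounds printed on slides; score combines fluorescence near 667 nm and signal to noise of each spot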
# conditions-used: higher = more signal
readout: composite z-score

                         compound_structure  assay_result
0  Cc1ccc(S[C@]2(C(=O)NCC(F)(F)F)CC(=O)N(C3CCCCC3)[C@@H]2c2ccc(CO)cc2)cc1        -0.194
1  C=C(CCCC)C(=O)CC[C@H](OC(=O)c1cccnc1)c1ccc(CO)o1         0.045
2  C#CCN([C@H](/C=C/C1CC1)[C@@H](O)Cc1ccccc1)[C@@H](Cc1ccccc1)C(=O)OC        -0.198

###

Each entry below carries its recorded composite z-score.
# test-method-notes: small-molecule microarray binders of probe aWnt5a, primary screen, biochemical, biotinylated probe, 635/667 nm fluorescence (AID 1113);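 further: score merges 667 nm fluorescence intensity with signal-to-noise per printed feature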
# conditions-used: higher = more signal

compound	composite z-score
COc1ccc([Si](C)(C)[C@@H]2[C@@H](CCO)O[C@]3(C(=O)N(Cc4ccccc4)c4ccc(N5C(=O)c6ccccc6Oc6ccccc65)cc43)[C@H]2C)cc1	-0.208
Cc1ccc(F)cc1S(=O)(=O)N[C@@H]1CCN(Cc2ccc3c(c2)OCO3)C1	-0.176
NC(=O)N1C(=O)C2C(C1=O)C1C=C(CCCO)C2C(c2ccc(CN3CCCC3)cc2)N1Cc1cccc(OC(F)(F)F)c1 (stereo unspecified)	-0.104
COc1ccc([Si](C)(C)[C@@H]2[C@@H](CC(=O)N(CCO)Cc3ccccc3)O[C@]3(C(=O)N(Cc4ccc(N5CCC5=O)cc4)c4ccccc43)[C@H]2C)cc1	-0.176
C[N+](C)(C)CCCCCCNC(=O)[C@H]1C[C@H]2C(=O)NCC(=O)N2[C@H]1c1cccc(OCCO)c1	-0.096
CCCC[C@H]1OB(O)C[C@H]2C1=C(C)C[C@H]1C(=O)C=CC(=O)[C@H]12	-0.132
CCCC[C@@H]1C[C@H]1[C@@H](NC(=O)c1ccc(C(F)(F)F)cc1)c1ccc(C(=O)OC)cc1	0.869
COC(=O)Cn1c(C(=O)N(C)C)cc2c1C[C@H]1CN(C(=O)c3ccccc3)[C@@](Cc3ccc(OC)cc3)(C(=O)OC)[C@@H]21	0.409
NCCCC[C@@H]1NC(=O)[C@H]2C[C@@H](C(=O)O)[C@@H](c3cccc(OCCO)c3)N2C1=O	0.0017
N#Cc1ccc(C(O)C2C=CC3C(=O)N(c4ccccc4)C(=O)C3N2Nc2ccc([N+](=O)[O-])cc2)cc1 (stereo unspecified)	0.222
COc1ccc(CCNC(=O)[C@@]2(C)c3ccccc3C(=O)N(Cc3cc(C(F)(F)F)cc(C(F)(F)F)c3)[C@H]2c2ccc(CO)cc2)cc1	-0.152
CC(C)C[C@H]1NC(=O)[C@@H](C)NC(=O)[C@@]23C(=O)N[C@@H](Cc4ccccc4)C2[C@H](C)[C@@]2(C)O[C@H]2C3/C=C/C/C=C\CNC1=O (stereo partly specified)	-0.175
CCCCCN1CC=CC23O[C@@H]4C=CCOC(=O)[C@@H]4[C@H]2C(=O)N(CCCCCO)[C@@H]3C1=O (stereo partly specified)	-0.209
C=CCN1C(=O)[C@]2(O[C@H](CCO)[C@@H]([Si](C)(C)c3ccc(OC)cc3)[C@@H]2C)c2ccccc21	-0.232
C#CCN=C(N)N	-0.131
CN(C)CCCC[C@@H]1NC(=O)[C@H]2C[C@@H](C(=O)NCc3ccc(F)cc3)[C@@H](c3ccc(O)cc3)N2C1=O	-0.0748
